Reference for the values: patent US10442866

- Target of assay: T1, recombinant human OX40-his (Sino Biological, Cat#:10481-H03H) (human, UniProt P43489 29-214)
- T1 construct: bought protein; also called hOX40-his; not shown: His tag
- T1 sequence: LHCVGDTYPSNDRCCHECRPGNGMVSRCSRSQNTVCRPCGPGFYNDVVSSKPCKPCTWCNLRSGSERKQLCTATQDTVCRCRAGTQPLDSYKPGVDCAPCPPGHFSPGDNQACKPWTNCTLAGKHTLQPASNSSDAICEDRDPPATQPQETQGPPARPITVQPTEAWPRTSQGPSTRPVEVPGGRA
- Test: ELISA on coated human OX40-His, OD450
Reported property: EC50 (read off the curve)

Answered cases to consult:
INSERT INTO assay_data (binder, recorded_value) VALUES
  ('71H8-VH2VL3 (antibody, human IgG1, kappa, V domains shown, humanized; also called 71H8-H2L3; 71H8H2L3) VH: QVQLVQSGAEVKKPGASVKVSCKVSGYTFTSYWITWVRQRPGKGLEWMGDIYPGSGSTNQNEKFKSRVTMTVDTSTDTAYMELSSLRSEDTAVYYCATLRPYYFVYWGQGTLVTVSS VL: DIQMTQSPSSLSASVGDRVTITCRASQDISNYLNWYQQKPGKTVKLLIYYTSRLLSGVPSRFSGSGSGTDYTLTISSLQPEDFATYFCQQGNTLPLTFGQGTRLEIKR', '~3 ng/mL'),
  ('71H8-VH3VL2 (antibody, human IgG1, kappa, V domains shown, humanized; also called 71H8-H3L2) VH: QVQLVQSGAEVKKPGASVKVSCKVSGYTFTSYWITWVRQRPGQGLEWIGDIYPGSGSTNQNEKFKSRVTLTVDTSTDTAYMELSSLRSEDTAVYYCATLRPYYFVYWGQGTLVTVSS VL: DIQMTQSPSSLSASVGDRVTITCRASQDISNYLNWYQQKPGKTPKLLIYYTSRLLSGVPSRFSGSGSGTDYTLTISSLQPEDFATYYCQQGNTLPLTFGQGTRLEIKR', '~3 ng/mL');

Let's switch to this binder now.
Q: # query: EC50 (read off the curve) of entry 71H8-VH0VL0 (antibody, human IgG1, kappa, V domains shown, humanized; also called 71H8-H0L0) VH: QVQLVQSGAEVKKPGASVKVSCKVSGDTFTSYWITWVRQAPGKGLEWMGDIYPGSGSTNQNEKFKSRVTMTEDTSTDTAYMELSSLRSEDTAVYYCATLRPYYFVYWGQGTLVTVSS VL: DIQMTQSPSSLSASVGDRVTITCRASQDISNYLNWYQQKPGKAPKLLIYYTSRLLSGVPSRFSGSGSGTDFTLTISSLQPEDFATYYCQQGNTLPLTFGQGTRLEIKR
A: ~3 ng/mL
